system_name: T1, Rhesus macaque CD4-HIS (Acro Biosystems, Cat. CD4-C52H7) (rhesus macaque, UniProt P16003 26-390)
T1 construct: Bought reagent; also called Rhesus CD4; rhesus CD4-HIS; not shown: His tag
assay_method_text: BLI (Octet Red384); Ab on anti-mouse Fc (AMC) sensor; rhesus CD4-HIS 100/50/25 nM; global 1:1 fit;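 further: antibodies loaded at 10 µg/mL, an unrelated mouse-derived antibody served as internal reference, curves fit over association and dissociation phases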

binder	koff / s⁻¹
75110_08M20A (antibody, V domains shown, Tested as antibody purified from AlivaMab Mouse hybridoma supernatant (human variable domains, kappa; mouse Fc, captured on anti-mouse IgG Fc sensors); also called ADS75110 purified AMM Ab) VH: QVQLQESDPGLVKPSETLSLTCTVSGGSISSYYWSWIRQPAGKGLEWIGRIYASGSTNYNPSLKSRVTMSVDTSKNQFSLKLSSVTAADTAVYYCARDREGYYYYGMDVWGQGTTVTVSS VL: DIQMTQSPSSLSASVGDRVTITCQASQDISKYLNWYQQKPGKAPNLLIYAASNLETGVPSRFSGSGSGTDFTFTISSLQPEDIAAYYCQQYDSLPITFGQGTRLEIK	0.0022
75110_11D03A (antibody, V domains shown, Tested as antibody purified from AlivaMab Mouse hybridoma supernatant (human variable domains, kappa; mouse Fc, captured on anti-mouse IgG Fc sensors); also called ADS75110 purified AMM Ab) VH: EVQLVESGGGLVQPGGSLRLSCAASGFTFSSYWMSWVRQAPGKGLEWVANINQDGNEKYYVDSVKGRFTISRDNAKNSLFLQMNSLRAEDTAVYYCAREGGQWLALDYWGQGALVTVSS VL: DIQMTQSPSSVSASVGDRVTITCRASQGISSWLAWYQQKPGKAPKFLISGASSLQSGVPSRFSGSGSGTDFTLTISSLQPEDFATYYCQQANSFPWTFGQGTKVEIK	0.0018
